Biological target: BChE derived from purified human plasma (Homo sapiens, UniProt P06276)
Sequence (P06276 29-602): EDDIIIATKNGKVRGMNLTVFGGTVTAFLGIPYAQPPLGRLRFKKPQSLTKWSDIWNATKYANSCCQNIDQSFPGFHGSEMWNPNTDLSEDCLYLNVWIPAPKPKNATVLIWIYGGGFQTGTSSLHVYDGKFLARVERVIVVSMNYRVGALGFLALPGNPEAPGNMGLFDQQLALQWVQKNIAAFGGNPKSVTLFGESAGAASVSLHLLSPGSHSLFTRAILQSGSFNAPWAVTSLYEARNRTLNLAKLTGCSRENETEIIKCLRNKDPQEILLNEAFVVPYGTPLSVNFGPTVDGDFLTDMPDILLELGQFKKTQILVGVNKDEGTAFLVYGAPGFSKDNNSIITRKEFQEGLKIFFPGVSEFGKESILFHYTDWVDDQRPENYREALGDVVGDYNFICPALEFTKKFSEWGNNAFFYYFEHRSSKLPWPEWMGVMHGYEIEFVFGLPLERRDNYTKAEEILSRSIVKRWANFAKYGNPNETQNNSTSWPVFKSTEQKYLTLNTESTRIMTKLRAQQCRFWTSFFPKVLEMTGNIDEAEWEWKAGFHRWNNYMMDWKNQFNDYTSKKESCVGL
Experiment: biochemical
Conditions: Table 2, oximes and oxime ethers; 0.1 M phosphate buffer pH 7.4, 25 °C, ATCh substrate; read-out: Inhibition of BChE, IC50 ± SEM
EXPERIMENTAL ENDPOINT: IC50 (µM)
Write the number in µM without appending the unit.

Solved entries (count: 9):
molecule="CC(C)O/N=C/C/C=C1\\C(O)=CC2CC1c1ccccc12 (stereo not shown)" experimental_endpoint=IC50 unit_name=µM readout_number=90
molecule="C=CCO/N=C/c1cc2c(o1)CC1CC2c2ccccc21 (stereo not shown)" experimental_endpoint=IC50 unit_name=µM readout_number=100
molecule="CCO/N=C/c1cc2c(o1)CC1CC2c2ccccc21 (stereo not shown)" experimental_endpoint=IC50 unit_name=µM readout_number=380
molecule="C=CCCO/N=C/C(=O)/C=C1\\C=CC2CC1c1ccccc12 (stereo not shown)" experimental_endpoint=IC50 unit_name=µM readout_number=140
molecule="O=C1CC2CC(/C1=C/C/C=N/OCCCCl)c1ccccc12 (stereo not shown)" experimental_endpoint=IC50 unit_name=µM readout_number=60
molecule="CC(C)O/N=C/C/C=C1\\C(O)CC2CC1c1ccccc12 (stereo not shown)" experimental_endpoint=IC50 unit_name=µM readout_number=31
molecule="CC(=O)O/N=C/c1cc2c(o1)CC1CC2c2ccccc21 (stereo not shown)" experimental_endpoint=IC50 unit_name=µM readout_number=61
molecule="CCCO/N=C\\c1cc2c(o1)CC1CC2c2ccccc21 (stereo not shown)" experimental_endpoint=IC50 unit_name=µM readout_number=74
molecule="CC(C)O/N=C/c1cc2c(o1)CC1CC2c2ccccc21 (stereo not shown)" experimental_endpoint=IC50 unit_name=µM readout_number=24

Enquiry: For CC(=O)O/N=C/C/C=C1\C(O)CC2CC1c1ccccc12 (stereo not shown) , what is its reported IC50?
Return: 78

###

Target: recombinant human AChE (Homo sapiens, UniProt P22303)
Sequence (P22303 32-614): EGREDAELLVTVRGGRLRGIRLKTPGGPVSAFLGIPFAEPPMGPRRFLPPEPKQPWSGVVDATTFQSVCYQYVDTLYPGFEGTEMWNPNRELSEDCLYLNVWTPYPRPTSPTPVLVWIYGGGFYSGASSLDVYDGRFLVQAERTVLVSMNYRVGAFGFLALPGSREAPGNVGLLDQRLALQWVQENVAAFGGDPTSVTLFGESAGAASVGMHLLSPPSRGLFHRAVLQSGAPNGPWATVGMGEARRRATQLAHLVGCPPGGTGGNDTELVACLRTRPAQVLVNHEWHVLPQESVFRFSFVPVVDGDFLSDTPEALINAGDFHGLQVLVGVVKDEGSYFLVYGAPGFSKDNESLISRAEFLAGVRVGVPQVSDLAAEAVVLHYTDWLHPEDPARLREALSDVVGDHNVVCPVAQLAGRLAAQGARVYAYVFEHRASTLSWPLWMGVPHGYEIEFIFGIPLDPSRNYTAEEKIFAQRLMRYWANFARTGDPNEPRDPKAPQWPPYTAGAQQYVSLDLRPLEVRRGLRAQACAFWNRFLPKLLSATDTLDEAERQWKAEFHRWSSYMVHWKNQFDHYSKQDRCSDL
Test: biochemical
Assay type: biochemical
Details: Table 4, acylated furo-benzobicyclo[3.2.1]octenes/octadienes; 0.1 M phosphate buffer pH 7.4, 25 °C, ATCh substrate; read-out: Inhibition of human AChE, IC50 ± SEM
This section presents compounds with their documented pIC50 values.
Scale explanation: pIC50 corresponds to minus log10 of a concentration expressed in moles per litre.

compound="C/C(O)=C/C=C1\\C(O)CC2CC1c1ccccc12 (centres unmarked)" target_or_system="recombinant human AChE (Homo sapiens, UniProt P22303)" experimental_endpoint=pIC50 readout_number=5.08

From here, focus on the item given below.
Enquiry: Using the record for CCC(=O)C/C=C1\C(O)=CC2CC1c1ccccc12 (centres unmarked) , report its pIC50.
Return: 3.73

###

Biological target: recombinant human AChE (Homo sapiens, UniProt P22303)
Test: biochemical
Type: biochemical
Conditions: Table 3, epoxides, alcohols and ethers; 0.1 M phosphate buffer pH 7.4, 25 °C, ATCh substrate; read-out: Inhibition of human AChE, IC50 ± SEM
pIC50: −log10 of the molar value.
Entries and their pIC50 values follow.

molecule="CCOC1C[C@@H]2C[C@@H](c3ccccc32)[C@H]1c1ccc(OC)cc1 (stereo partly drawn) [endo-46]" result=3.57

Enquiry: // returns reported pIC50 for input COc1ccc([C@H]2[C@@H]3OC3[C@@H]3C[C@H]2c2ccccc23)cc1 (stereo partly drawn) [endo-39]
Return: < 4.00

Enquiry: Here is the next molecule: c1ccc([C@H]2C3OC3[C@@H]3C[C@H]2c2ccccc23)cc1 (stereo partly drawn) [endo-38]
Return: 4.21

Enquiry: Request: OCCCOC1CC2CC(c3ccccc32)C1c1ccccc1 (stereo not drawn) [endo-45]
Return: < 4.00

Enquiry: What about this molecule? CCCOC1C[C@@H]2C[C@@H](c3ccccc32)[C@H]1c1ccccc1 (stereo partly drawn) [endo-43]
Return: < 4.00

Enquiry: For CCCOC1C[C@@H]2C[C@@H](c3ccccc32)[C@H]1c1ccc(OC)cc1 (stereo partly drawn) [endo-47] then?
Return: < 4.00
